// provenance: patent US20240010684A1

Listing: pIC50 of selected compounds
Biological target: human MASP1 (Homo sapiens (Human), UniProt P48740)
Sequence (P48740 other isoform, or with tags, fused parts or gaps): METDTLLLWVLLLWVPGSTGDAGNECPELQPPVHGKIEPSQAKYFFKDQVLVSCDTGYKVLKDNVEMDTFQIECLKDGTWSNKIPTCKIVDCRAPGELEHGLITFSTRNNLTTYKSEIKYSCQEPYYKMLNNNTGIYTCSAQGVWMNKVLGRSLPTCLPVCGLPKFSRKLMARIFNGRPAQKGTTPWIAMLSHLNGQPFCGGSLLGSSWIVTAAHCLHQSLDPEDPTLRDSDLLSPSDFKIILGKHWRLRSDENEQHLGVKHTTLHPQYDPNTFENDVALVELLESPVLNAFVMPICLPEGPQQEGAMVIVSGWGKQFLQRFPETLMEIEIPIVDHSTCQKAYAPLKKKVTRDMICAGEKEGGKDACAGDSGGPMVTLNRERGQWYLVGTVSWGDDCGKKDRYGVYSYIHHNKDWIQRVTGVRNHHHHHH
Assay: Biochemical human MASP1 assay (FRET substrate)
Conditions: Average IC50; recombinant human MASP1; read-out: human MASP1 IC50
Source text: A truncated cDNA sequence of human MASP1 encoding the fragment corresponding to the amino acids 297-699 with a C-terminal His Tag and N-terminal Ig-kappa secretion signal (SEQ ID No: 2) was subcloned into the mammalian expression vector pcDNA3.1 (Invitrogen). The MASP1 or MASP2 expression vectors were transfected into the HEK293 (ATCC No. CRL-1573) cell line using Lipofectamine LTX® Reagent (Thermo-Fischer), as described by the manufacturer. […]
Where a SMILES comes first, the peptide text is derived from it. Bridges are numbered along the chain shown (N, C = ends). [ ]: non-standard residue; d: D form. Oic = O=C(O)[C@@H]1C[C@@H]2CCCC[C@@H]2N1; tBuAla = CC(C)(C)C[C@H](N)C(=O)O; Pen = CC(C)(S)[C@H](N)C(=O)O; Dab = NCC[C@H](N)C(=O)O; Dap = NC[C@H](N)C(=O)O; Ahx = NCCCCCC(=O)O
The read-out pIC50 is expressed as -log10 of concentration in moles per litre.

Sample answers from the record:
compound | recorded.metric | recorded.result
CC[C@H](C)[C@@H]1NC(=O)CNC(=O)CCCCCNC(=O)C[C@@H](C(N)=O)NC(=O)[C@@H]2CCCN2C(=O)[C@H]([C@@H](C)CC)NC(=O)[C@H]2NC(=O)[C@H]([C@@H](C)CC)NC(=O)[C@@H]3C[C@@H]4CCCC[C@@H]4N3C(=O)[C@@H]3CCCN3C(=O)[C@H](CC(C)C)NC(=O)[C@H](CO)NC(=O)[C@H](CCCNC(=N)N)NC(=O)[C@H](CO)NC(=O)[C@H](CSSC2(C)C)NC1=O [Example 49] ([Ahx]GICSRSLP[Oic]I[Pen]IPD-NH2; disulfide 4-12; lactam N-15) | pIC50 | 7.72
CC[C@H](C)[C@@H]1NC(=O)CNC(=O)CNC(=O)[C@H](C)NC(=O)[C@H](CC(=O)O)NC(=O)[C@@H]2CCCN2C(=O)[C@H]([C@@H](C)CC)NC(=O)[C@H]2NC(=O)[C@H]([C@@H](C)CC)NC(=O)[C@@H]3CCCN3C(=O)[C@@H]3CCCN3C(=O)[C@H](CC(C)(C)C)NC(=O)[C@H](CO)NC(=O)[C@H](CCCNC(=N)N)NC(=O)[C@H](CO)NC(=O)[C@H](CSSC2(C)C)NC1=O [Example 29] (cyclo(AGGICSRS[tBuAla]PPI[Pen]IPD); disulfide 5-13) | pIC50 | 8.07
CC[C@H](C)[C@@H]1NC(=O)[C@H](CCN)NC(=O)[C@@H]2CCCN2C(=O)[C@H]([C@@H](C)CC)NC(=O)[C@H]2NC(=O)[C@H]([C@@H](C)CC)NC(=O)[C@@H]3CCCN3C(=O)[C@@H]3CCCN3C(=O)[C@H](CC(C)(C)C)NC(=O)[C@H](CO)NC(=O)[C@H](CCCNC(=N)N)NC(=O)[C@H](CO)NC(=O)[C@H](CSSC2(C)C)NC1=O [Example 56] (cyclo(CSRS[tBuAla]PPI[Pen]IP[Dab]I); disulfide 1-9) | pIC50 | 7.07
CC[C@H](C)[C@@H]1NC(=O)[C@@H]2CCCN2C(=O)[C@@H]2CCCN2C(=O)[C@H]([C@@H](C)CC)NC(=O)[C@@H]2CSSC[C@H](NC(=O)[C@H]([C@@H](C)O)NC(=O)[C@H](CCCCN)NC(=O)[C@H](CO)NC1=O)C(=O)N[C@@H](CCCNC(=N)N)C(=O)NCC(=O)N[C@@H](CC(=O)O)C(=O)N1CCC[C@H]1C(=O)N[C@@H](Cc1ccccc1)C(=O)N2 [Ref. No 12, reference compound] (cyclo(RGDPFCIPPISKTC); disulfide 6-14) | pIC50 | 5.32

Please list pIC50 recorded for the compound CC[C@H](C)[C@@H]1NC(=O)[C@H](CN)NC(=O)[C@@H](N)CNC(=O)[C@@H]2CCCN2C(=O)[C@H]([C@@H](C)CC)NC(=O)[C@H]2NC(=O)[C@H]([C@@H](C)CC)NC(=O)[C@@H]3C[C@@H]4CCCC[C@@H]4N3C(=O)[C@@H]3CCCN3C(=O)[C@H](CC(C)C)NC(=O)[C@H](CO)NC(=O)[C@H](CCCNC(=N)N)NC(=O)[C@H](CO)NC(=O)[C@H](CSSC2(C)C)NC1=O [Example 86] (H-[Dap][Dap]ICSRSLP[Oic]I[Pen]IP; lactam 1-C; disulfide 4-12)
7.57
